- test system: recombinant pentameric gH complex (Towne strain) (human cytomegalovirus, Towne strain) (UniProt P17176)
- Sequence (P17176 30-715, one chain of several): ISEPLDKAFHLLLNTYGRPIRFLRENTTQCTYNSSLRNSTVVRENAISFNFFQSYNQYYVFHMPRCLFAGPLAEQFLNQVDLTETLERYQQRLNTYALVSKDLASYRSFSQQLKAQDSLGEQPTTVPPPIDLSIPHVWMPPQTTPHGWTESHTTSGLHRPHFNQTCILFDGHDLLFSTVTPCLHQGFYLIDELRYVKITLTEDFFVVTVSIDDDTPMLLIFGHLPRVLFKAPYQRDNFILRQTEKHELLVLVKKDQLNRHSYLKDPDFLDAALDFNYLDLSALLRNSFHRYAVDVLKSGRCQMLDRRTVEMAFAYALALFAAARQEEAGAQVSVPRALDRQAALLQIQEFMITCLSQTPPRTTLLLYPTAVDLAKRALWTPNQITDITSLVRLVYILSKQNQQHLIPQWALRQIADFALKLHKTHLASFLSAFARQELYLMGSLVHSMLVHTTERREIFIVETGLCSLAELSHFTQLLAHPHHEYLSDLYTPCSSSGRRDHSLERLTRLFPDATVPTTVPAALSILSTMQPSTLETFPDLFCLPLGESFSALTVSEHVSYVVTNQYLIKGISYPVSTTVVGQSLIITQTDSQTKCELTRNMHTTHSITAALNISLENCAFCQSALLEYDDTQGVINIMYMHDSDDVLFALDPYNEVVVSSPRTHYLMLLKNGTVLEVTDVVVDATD
- measurement notes: BLI competition on His-pentamer; competitor (antibody 2): 57.4
reported property: Pair-wise inhibition (%)

binder: 1-32 (antibody, V domains shown) VH: QVKLVESGGGVVQPGRSLRLSCAGSGFAFDNYAMHWVRQAPGKGLEWVAVISLEGRNKYYAGPAKGRFSISRDNSRNTVHLQMNSLRPEDTAVYFCARDMRYYYDSNGHYRNRYGMDVWGQGTTVIVSS VL: DIQMTQSPSSLSASVGDSVTITCQASQDINQFVSWYQQKPGKPPKLLIYDASNLESGVPSRFSGSGSGTHFTFTISSLQPDDIATYYCQQYENLFTFGPGTKVDIK
reported property: Pair-wise inhibition (%)
result: 57%
